EXPERIMENT_NOTES: physchem
CONDITION_SET: 22.5 °C, pH 8.36, aqueous with cosolvent or surfactant or cyclodextrin, thermodynamic from solid
QUANTITY_NAME: solubility at 7 days

Request: Could you tell me which solubility at 7 days is on file for `O=C(O)c1cc(-c2ccc(F)cc2F)ccc1O` ?
Result: ~47 mg/mL

###

EXPERIMENT_NOTES: Phase-solubility in aqueous HPβCD solutions
CONDITION_SET: 22.5 °C, pH 6, aqueous buffer, thermodynamic from solid
QUANTITY_NAME: solubility at 7 days

Request: Could you tell me which solubility at 7 days is on file for `Cc1nnc2n1-c1ccc(Cl)cc1C(c1ccccc1)=NC2` ?
Result: 200 µM
